system: NCI-H460; assay: Cytotoxicity against human NCI-H460 cells assessed as inhibition of cell viability by MTT assay; assay type: functional, cell-based
property.name: IC50 (µM)
One number for each entry, in µM.

INSERT INTO results (chemical_string, property_name, meas_value) VALUES
  ('CCCCCCCCCCCCO[C@@H]1O[C@@H](C)[C@H](O[C@@H]2O[C@@H](C)[C@H](OC(C)=O)[C@@H](O[C@@H]3O[C@@H](C)[C@H](O)[C@@H](O[C@@H]4O[C@@H](C)[C@H](OC(C)=O)[C@@H](O)[C@H]4O)[C@H]3OC(C)=O)[C@H]2O)[C@@H](O)[C@H]1O', 'IC50', 16.5);

Okay, here is my list. What is IC50 for each of these?
1. CCCCCCCCCCCCO[C@@H]1O[C@@H](C)[C@H](O[C@@H]2O[C@@H](C)[C@H](OC(C)=O)[C@@H](O[C@@H]3O[C@@H](C)[C@H](OC(C)=O)[C@@H](O[C@@H]4O[C@@H](C)[C@H](O)[C@@H](O)[C@H]4OC(C)=O)[C@H]3OC(C)=O)[C@H]2O)[C@@H](O)[C@H]1O
2. CCCCCCCCCCCCO[C@@H]1O[C@@H](C)[C@H](O[C@@H]2O[C@@H](C)[C@H](OC(C)=O)[C@@H](O[C@@H]3O[C@@H](C)[C@H](OC(C)=O)[C@@H](O[C@@H]4O[C@@H](C)[C@H](OC(C)=O)[C@@H](O)[C@H]4OC(C)=O)[C@H]3OC(C)=O)[C@H]2O)[C@@H](O)[C@H]1O

[12.8, 7.5]
